- EXPERIMENT NOTES: Oral bioavailability in Sprague-Dawley rat at 2.5 mg/kg using 20% HP-beta-CD formulation by LC-MS/MS analysis
- Type: ADME, organism-based
- CONDITION SUMMARY: in vivo
READOUT NAME: bioavailability (%)
Report the figure in % without appending any unit label.

// query Tell me the measured bioavailability of "Cc1ccc(-c2cnc3c(c2)n(CC(=O)N2CCC2)c(=O)n3C)s1" , please.
// result 1

###

- EXPERIMENT NOTES: Cmax in Sprague-Dawley rat at 100 mg/kg, po administered via gavage after 24 hrs using nanosuspension formulation by LC-MS/MS analysis
- Assay type: ADME, organism-based
- Parameters: route oral, dose 100 mg/kg, time 24 hrs
- CONDITION SUMMARY: in vivo
READOUT NAME: Cmax (ng/mL)
Report the figure in ng/mL without appending any unit label.

// query Tell me the measured Cmax of "Cn1c(=O)n(CC(=O)N2CCC2)c2cc(-c3ccc(C(F)(F)F)s3)cnc21" , please.
// result 9000

###

- EXPERIMENT NOTES: Half life in Sprague-Dawley rat at 0.5 mg/kg, iv or 2.5 mg/kg, po using 20% HP-beta-CD formulation by LC-MS/MS analysis
- Type: ADME, organism-based
- CONDITION SUMMARY: in vivo
READOUT NAME: half-life (min)
Report the figure in min without appending any unit label.

// query Tell me the measured half-life of "Cc1ccc(-c2cnc3c(c2)n(CC(=O)N2CCC2)c(=O)n3C)s1" , please.
// result 12

###

- EXPERIMENT NOTES: Metabolic stability in rat liver microsomes assessed as extraction ratio at 1 uM after 5 to 60 mins in presence of NADPH by LC-MS/MS analysis
- Type: ADME, Microsome
- CONDITION SUMMARY: time 5-60 min, read-out: ERH
Each item that follows carries a reported hepatic extraction ratio at 1 µM.
Returns: the value as a bare number; no unit string appended.

Example entries and their recorded answers appear below.
[[record]]
smiles_text = "Cn1c(=O)n(CC(=O)N2CCC2)c2cc(-c3ccc(C(F)F)s3)cnc21"
measured_value = 0.58

[[record]]
smiles_text = "Cn1c(=O)n(CC(=O)N2CC(F)C2)c2cc(-c3ccc(C(F)(F)F)s3)cnc21"
measured_value = 0.17

[[record]]
smiles_text = "Cn1c(=O)n(CC(=O)N2CCC2)c2cc(-c3cc(C(F)F)cs3)cnc21"
measured_value = 0.52

[[record]]
smiles_text = "Cc1csc(-c2cnc3c(c2)n(CC(=O)N(C)C)c(=O)n3C)c1"
measured_value = 0.82

[[record]]
smiles_text = "CN(C)C(=O)Cn1c(=O)n(C)c2ncc(-c3cccc(C(F)(F)F)c3)cc21"
measured_value = 0.31


// query Tell me the measured hepatic extraction ratio at 1 µM of "Cc1ccc(-c2cnc3c(c2)n(CC(=O)N2CCC2)c(=O)n3C)s1" , please.
// result 0.78

###

- EXPERIMENT NOTES: Displacement of 3-[3H] 1-(azetidin-1-yl)-2-[6-(4-fluoro-3-methyl-phenyl)pyrrolo[3,2-b]pyridin-1-yl]ethanone from GluN1a/GluN2B receptor in rat cortex membranes measured after 2 hrs by liquid scintillation counting method
- Format: cell membranes
Each item that follows carries a reported pKi.
Lab note: report pKi as minus log10 of the concentration in molar units, number only.

Example entries and their recorded answers appear below.
[[record]]
smiles_text = "Cn1c(=O)n(CC(=O)N2CC(F)C2)c2cc(-c3cccc(C(F)(F)F)c3)cnc21"
readout_name = "pKi"
measured_value = 7.60

[[record]]
smiles_text = "Cn1c(=O)n(CC(=O)N2CCC2)c2cc(-c3cc(C(F)F)cs3)cnc21"
readout_name = "pKi"
measured_value = 7.23


// query Tell me the measured pKi of "Cn1c(=O)n(CC(=O)N2CCC2)c2cc(-c3ccc(C(F)F)s3)cnc21" , please.
// result 7.72

// query Tell me the measured pKi of "Cc1csc(-c2cnc3c(c2)n(CC(=O)N(C)C)c(=O)n3C)c1" , please.
// result 6.57

// query Tell me the measured pKi of "Cn1c(=O)n(CC(=O)N2CCC2)c2cc(-c3ccc(C4CC4)s3)cnc21" , please.
// result 7.20

// query Tell me the measured pKi of "CN(C)C(=O)Cn1c(=O)n(C)c2ncc(-c3ccc(C(F)(F)F)s3)cc21" , please.
// result 7.92

// query Tell me the measured pKi of "CN(C)C(=O)Cn1c(=O)n(C)c2ncc(-c3cccc(C(F)(F)F)c3)cc21" , please.
// result 7.72

// query Tell me the measured pKi of "Cn1c(=O)n(CC(=O)N2CCC2)c2cc(-c3cccc(C(F)(F)F)c3)cnc21" , please.
// result 7.72

// query Tell me the measured pKi of "Cn1c(=O)n(CC(=O)N2CC(F)C2)c2cc(-c3ccc(C(F)(F)F)s3)cnc21" , please.
// result 7.68

// query Tell me the measured pKi of "Cn1c(=O)n(CC(=O)N2CCC2)c2cc(-c3ccc(C(F)(F)F)s3)cnc21" , please.
// result 7.80

// query Tell me the measured pKi of "Cc1ccc(-c2cnc3c(c2)n(CC(=O)N2CCC2)c(=O)n3C)s1" , please.
// result 7.36

###

- EXPERIMENT NOTES: Cmax in Sprague-Dawley rat brain at 3 mg/kg, po after 2 hrs by LC-MS/MS analysis
- Format: ADME, organism-based
- Parameters: route oral, dose 3 mg/kg, time 2 hrs
Each item that follows carries a reported Cmax.
Report the figure in ng/g without appending any unit label.

[[record]]
smiles_text = "Cn1c(=O)n(CC(=O)N2CC(F)C2)c2cc(-c3ccc(C(F)(F)F)s3)cnc21"
units_of_measure = "ng/g"
measured_value = 728

[[record]]
smiles_text = "Cn1c(=O)n(CC(=O)N2CCC2)c2cc(-c3ccc(C(F)(F)F)s3)cnc21"
units_of_measure = "ng/g"
measured_value = 765


Turning to the following compound.
// query Tell me the measured Cmax of "CN(C)C(=O)Cn1c(=O)n(C)c2ncc(-c3ccc(C(F)(F)F)s3)cc21" , please.
// result 1260

###

- EXPERIMENT NOTES: Oral bioavailability in Sprague-Dawley rat at 2.5 mg/kg using 1:1 PEG-400/water formulation by LC-MS/MS analysis
- Assay type: ADME, organism-based
- CONDITION SUMMARY: in vivo
READOUT NAME: bioavailability (%)
Report the figure in % without appending any unit label.

// query Tell me the measured bioavailability of "Cn1c(=O)n(CC(=O)N2CCC2)c2cc(-c3ccc(C(F)(F)F)s3)cnc21" , please.
// result 132

###

- EXPERIMENT NOTES: Tmax in monkey at 0.5 mg/kg, po by LC-MS/MS analysis
- Type: ADME, organism-based, Macaca mulatta
- CONDITION SUMMARY: rhesus monkey, in vivo
READOUT NAME: Tmax (h)
Report the figure in h without appending any unit label.

// query Tell me the measured Tmax of "Cn1c(=O)n(CC(=O)N2CCC2)c2cc(-c3ccc(C(F)(F)F)s3)cnc21" , please.
// result 1

###

- EXPERIMENT NOTES: Tmax in mouse at 2.5 mg/kg, po by LC-MS/MS analysis
- Format: ADME, organism-based
- CONDITION SUMMARY: in vivo
READOUT NAME: Tmax (min)
Report the figure in min without appending any unit label.

// query Tell me the measured Tmax of "Cn1c(=O)n(CC(=O)N2CCC2)c2cc(-c3ccc(C(F)(F)F)s3)cnc21" , please.
// result 18

###

- EXPERIMENT NOTES: AUC (infinity) in Sprague-Dawley rat at 0.5 mg/kg, iv or 2.5 mg/kg, po using 30% SBE-beta-CD formulation by LC-MS/MS analysis
- Assay type: ADME, organism-based
- Parameters: dose 2.5 mg/kg
- CONDITION SUMMARY: in vivo
READOUT NAME: AUC(0-inf)
Include the unit right after the number.

// query Tell me the measured AUC(0-inf) of "Cn1c(=O)n(CC(=O)N2CC(F)C2)c2cc(-c3ccc(C(F)(F)F)s3)cnc21" , please.
// result 3610 ng·h/mL

###

- EXPERIMENT NOTES: AUC (0 to 24 hrs) in Sprague-Dawley rat at 1000 mg/kg, po administered via gavage after 24 hrs using HPMC formulation by LC-MS/MS analysis
- Format: ADME, organism-based
- Set-up: route oral, dose 1000 mg/kg, time <=24
- CONDITION SUMMARY: in vivo
READOUT NAME: AUC(0-t) (ng·h/mL)
Report the figure in ng·h/mL without appending any unit label.

// query Tell me the measured AUC(0-t) of "Cn1c(=O)n(CC(=O)N2CCC2)c2cc(-c3ccc(C(F)(F)F)s3)cnc21" , please.
// result 22300
